# System: Cyclin-dependent kinase 9 (Homo sapiens)
# Sequence (P50750 whole entry): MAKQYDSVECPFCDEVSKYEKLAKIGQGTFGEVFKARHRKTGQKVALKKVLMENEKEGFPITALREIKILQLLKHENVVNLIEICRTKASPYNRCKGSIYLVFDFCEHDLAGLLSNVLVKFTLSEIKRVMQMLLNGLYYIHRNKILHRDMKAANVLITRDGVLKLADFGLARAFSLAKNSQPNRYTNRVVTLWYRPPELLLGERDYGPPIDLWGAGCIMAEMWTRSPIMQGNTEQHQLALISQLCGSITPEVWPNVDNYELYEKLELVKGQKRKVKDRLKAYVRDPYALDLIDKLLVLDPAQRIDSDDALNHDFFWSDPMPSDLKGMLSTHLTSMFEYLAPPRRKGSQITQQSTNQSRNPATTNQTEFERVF
# Protocol description: In Vitro Kinase Inhibition Assay: In vitro kinase assay analysis may be performed using standard techniques described in the art. These techniques are also used by commercial services providers in order to offer in vitro kinase activity assay services, e.g. the assays offered by Millipore Inc. (worldwide website www(dot)millipore.com), ProQinase GmbH (worldwide website www(dot)proqinase.de) and others. All kinase assays were performed in 96-well FlashPlates from Perkin Elmer/NEN (Boston, Mass., USA) in a 50ul reaction volume. The reaction mixture was pipetted in four steps in the following order: 20ul of assay buffer (standard buffer),5ul of ATP solution (in H2O, 5 ul of test compound (in 10% DMSO), 10ul of substrate/10ul of enzyme solution (premixed)The assay for all enzymes contained 60 mM HEPES-NaOH (pH 7.5), 3 mM MgCl2, 3 mM MnCl2, 3uM Na-Orthovanadate, 1.2 mM DTT, 50 ug/ml PEG2000, 1 uM [33P]-ATP (approx. 5x1005 cpm per well).
Result type: IC50 (nM)

>>> df
                               given_smiles  result_type  endpoint_value
0  COc1cc(F)ccc1-c1ccnc(NC(=O)[C@@H]2CC[C@H](NC(C)=O)C2)c1         IC50              10
